- Tested on: Pseudoperonospora cubensis
- METHOD_DESCRIPTION: Antifungal activity against Pseudoperonospora cubensis assessed as cucumber downy mildew control measured after 1 day
- Format: functional, organism-based
Activity calls are given as the source filed them. The calls are words filed in the database; no cut-off is given here.

>  <COMPOUND_SMILES>
O=C(/C=C/c1ccco1)c1occc1O

>  <Activity>
inactive

$$$$
>  <COMPOUND_SMILES>
Cc1ccc(/C=C/C(=O)c2occc2O)cc1

>  <Activity>
inactive

$$$$
>  <COMPOUND_SMILES>
O=C(/C=C/c1ccc(F)cc1)c1occc1O

>  <Activity>
inactive

$$$$
>  <COMPOUND_SMILES>
O=C(/C=C/c1ccccn1)c1occc1O

>  <Activity>
inactive

$$$$
>  <COMPOUND_SMILES>
O=C(/C=C/c1ccc(Cl)cc1Cl)c1occc1O

>  <Activity>
inactive

$$$$
>  <COMPOUND_SMILES>
O=C(/C=C/c1ccc(Cl)cc1)c1occc1O

>  <Activity>
inactive

$$$$
>  <COMPOUND_SMILES>
N#Cc1cccc(/C=C/C(=O)c2occc2O)c1

>  <Activity>
inactive

$$$$
>  <COMPOUND_SMILES>
O=C(/C=C/c1ccc2ccccc2c1)c1occc1O

>  <Activity>
inactive

$$$$
>  <COMPOUND_SMILES>
COc1ccc(/C=C/C(=O)c2occc2O)cc1

>  <Activity>
inactive

$$$$
>  <COMPOUND_SMILES>
O=C(/C=C/c1ccc(Br)cc1)c1occc1O

>  <Activity>
inactive

$$$$
>  <COMPOUND_SMILES>
O=C(/C=C/c1cccc([N+](=O)[O-])c1)c1occc1O

>  <Activity>
inactive

$$$$
>  <COMPOUND_SMILES>
O=C(/C=C/c1ccccc1)c1occc1O

>  <Activity>
inactive

$$$$

###

- Tested on: Cucumis sativus
- METHOD_DESCRIPTION: Herbicidal activity against Cucumis sativus (cucumber) assessed as inhibitory rate of seedling height at 7.5 g/hm'2 relative to control
- Format: functional
MEASURE_NAME: inhibition (INH) (%)

>  <COMPOUND_SMILES>
Cc1ccc(/C=C/C(=O)c2occc2O)cc1

>  <NUMBER>
32.7

$$$$
>  <COMPOUND_SMILES>
O=C(/C=C/c1ccc2ccccc2c1)c1occc1O

>  <NUMBER>
41.3

$$$$
>  <COMPOUND_SMILES>
O=C(/C=C/c1ccccc1)c1occc1O

>  <NUMBER>
33.7

$$$$
>  <COMPOUND_SMILES>
O=C(/C=C/c1cccc([N+](=O)[O-])c1)c1occc1O

>  <NUMBER>
46.8

$$$$
>  <COMPOUND_SMILES>
O=C(/C=C/c1ccc(Cl)cc1)c1occc1O

>  <NUMBER>
36.5

$$$$
>  <COMPOUND_SMILES>
COC(=O)[C@@H](C)Oc1ccc(Oc2ncc(C(F)(F)F)cc2Cl)cc1

>  <NUMBER>
42.1

$$$$
>  <COMPOUND_SMILES>
O=C(/C=C/c1ccccn1)c1occc1O

>  <NUMBER>
31

$$$$
>  <COMPOUND_SMILES>
O=C(/C=C/c1ccco1)c1occc1O

>  <NUMBER>
36.1

$$$$
>  <COMPOUND_SMILES>
O=C(/C=C/c1ccc(Cl)cc1Cl)c1occc1O

>  <NUMBER>
35.1

$$$$
>  <COMPOUND_SMILES>
O=C(/C=C/c1ccc(F)cc1)c1occc1O

>  <NUMBER>
56.8

$$$$
>  <COMPOUND_SMILES>
O=C(/C=C/c1ccc(Br)cc1)c1occc1O

>  <NUMBER>
40.5

$$$$
>  <COMPOUND_SMILES>
COc1ccc(/C=C/C(=O)c2occc2O)cc1

>  <NUMBER>
33.3

$$$$
>  <COMPOUND_SMILES>
N#Cc1cccc(/C=C/C(=O)c2occc2O)c1

>  <NUMBER>
33.3

$$$$
